assay.system: Acetylcholinesterase (Electrophorus electricus)
protocol.notes: Competitive inhibition of electric eel AChE using acetylthiocholine iodide as substrate preincubated for 20 mins followed by substrate addition measured every 1 min for 30 mins by Dixon plot method
pKi: −log10 of the molar value.
Lab note: compare pKi against 5. Equal or greater, write YES. Smaller, write NO.

compound=COC(=O)[C@]12CC[C@@H](/C(C)=N/OC(C)=O)[C@@H]1[C@H]1CC[C@@H]3[C@@]4(C)CC[C@H](OC(C)=O)C(C)(C)[C@@H]4CC[C@@]3(C)[C@]1(C)CC2 category=NO
compound=COC(=O)[C@]12CC[C@@H]([C@H](C)N)[C@@H]1[C@H]1CC[C@@H]3[C@@]4(C)CC[C@H](OC(C)=O)C(C)(C)[C@@H]4CC[C@@]3(C)[C@]1(C)CC2 category=NO
compound=CC(=O)O[C@H]1CC[C@]2(C)[C@H]3CC[C@@H]4[C@H]5[C@H]([C@@H](C)N)CC[C@]5(C(=O)O)CC[C@@]4(C)[C@]3(C)CC[C@H]2C1(C)C category=NO
compound=COC(=O)[C@]12CC[C@@H](NC(C)=O)[C@@H]1[C@H]1CC[C@@H]3[C@@]4(C)CC[C@H](OC(C)=O)C(C)(C)[C@@H]4CC[C@@]3(C)[C@]1(C)CC2 category=NO
compound=CC(=O)[C@@H]1CC[C@]2(C(=O)OCc3ccccc3)CC[C@]3(C)[C@H](CC[C@@H]4[C@@]5(C)CCC(=O)C(C)(C)[C@@H]5CC[C@]43C)[C@@H]12 category=YES
compound=CC(=O)O[C@H]1CC[C@]2(C)[C@H]3CC[C@@H]4[C@H]5[C@H](C(C)=O)CC[C@]5(C(=O)NCCN)CC[C@@]4(C)[C@]3(C)CC[C@H]2C1(C)C category=YES
compound="CC(=O)[C@@H]1CC[C@]2(C(=O)O)CC[C@]3(C)[C@H](CC[C@@H]4[C@@]5(C)CC[C@H](O)C(C)(C)[C@@H]5CC[C@]43C)[C@@H]12 [PLATANIC ACID]" category=NO
compound=CC(=O)O[C@H]1CC[C@]2(C)[C@H]3CC[C@@H]4[C@H]5[C@H](C(C)=O)CC[C@]5(C(=O)OCc5ccccc5)CC[C@@]4(C)[C@]3(C)CC[C@H]2C1(C)C category=YES

----------
Reported Ki by item:
assay.system: Acetylcholinesterase (Electrophorus electricus, UniProt O42275)
Sequence (O42275 whole entry): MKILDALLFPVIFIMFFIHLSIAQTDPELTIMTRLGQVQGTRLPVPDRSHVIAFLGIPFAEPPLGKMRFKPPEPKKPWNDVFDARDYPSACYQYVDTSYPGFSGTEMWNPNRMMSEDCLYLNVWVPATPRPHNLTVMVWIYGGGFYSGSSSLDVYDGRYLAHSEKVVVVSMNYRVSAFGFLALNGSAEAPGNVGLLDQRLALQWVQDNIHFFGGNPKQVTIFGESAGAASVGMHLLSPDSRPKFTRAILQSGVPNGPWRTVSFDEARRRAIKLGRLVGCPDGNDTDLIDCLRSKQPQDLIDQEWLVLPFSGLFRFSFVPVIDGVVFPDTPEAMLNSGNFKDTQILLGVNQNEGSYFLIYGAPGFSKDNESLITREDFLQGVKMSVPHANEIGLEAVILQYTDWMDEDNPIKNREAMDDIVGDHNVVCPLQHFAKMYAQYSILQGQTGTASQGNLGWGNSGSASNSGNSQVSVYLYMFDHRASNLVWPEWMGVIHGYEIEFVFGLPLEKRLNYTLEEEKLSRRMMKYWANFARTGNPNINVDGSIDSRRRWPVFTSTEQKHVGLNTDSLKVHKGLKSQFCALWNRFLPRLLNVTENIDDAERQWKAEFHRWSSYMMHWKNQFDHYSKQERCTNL
protocol.notes: Competitive inhibition of electric eel AChE using acetylthiocholine iodide as substrate preincubated for 20 mins followed by substrate addition measured every 1 min for 30 mins by Dixon plot method
readout.label: Ki (µM)

structure_smiles=CCC(=O)O/N=C(\C)[C@@H]1CC[C@]2(C(=O)OC)CC[C@]3(C)[C@H](CC[C@@H]4[C@@]5(C)CC[C@H](OC(C)=O)C(C)(C)[C@@H]5CC[C@]43C)[C@@H]12 unit_annotation=µM relation_qualifier=> test_result=30
structure_smiles=CC(=O)[C@@H]1CC[C@]2(C(=O)OCc3ccccc3)CC[C@]3(C)[C@H](CC[C@@H]4[C@@]5(C)CC[C@@H](N)C(C)(C)[C@@H]5CC[C@]43C)[C@@H]12 unit_annotation=µM relation_qualifier== test_result=20.3
structure_smiles=C[C@@H](N)[C@@H]1CC[C@]2(CO)CC[C@]3(C)[C@H](CC[C@@H]4[C@@]5(C)CC[C@H](O)C(C)(C)[C@@H]5CC[C@]43C)[C@@H]12 unit_annotation=µM relation_qualifier== test_result=53.1
structure_smiles=CC(=O)[C@@H]1CC[C@]2(C(=O)NCCN)CC[C@]3(C)[C@H](CC[C@@H]4[C@@]5(C)CC[C@H](O)C(C)(C)[C@@H]5CC[C@]43C)[C@@H]12 unit_annotation=µM relation_qualifier== test_result=7.18
